System: HOP-62 NSCLC
Experiment: NCI tumour cell line growth inhibition, 48 h
For each entry below, report its TGI value.

What TGI value was documented for this compound, NCCOc1ncccc1/C=C1\C2C=CC=CC2C2C=CC(F)=CC12 (centres undefined) ?
2.68 µM

What TGI value was documented for this compound, `Cc1c(CN)c(C)c(CN)c(C)c1CN` ?
> 100 µM

What TGI value was documented for this compound, `CC(C)=NN/C(=N\S(=O)(=O)c1cc2ccccc2s1)Nc1ccc(Cl)cc1` ?
> 100 µM

What TGI value was documented for this compound, C=C1CC[C@@H]2C(C)(C)C(O)CCC2(C)C1COc1ccc2ccc(=O)oc2c1 (some centres undefined) ?
33.4 µM

What TGI value was documented for this compound, `CO/C(N)=C(\C#N)N=Cc1ccccc1` ?
> 100 µM

What TGI value was documented for this compound, COc1ccc(C(=O)C2C(C#N)C(C#N)C3C=Cc4ccccc4N32)cc1 (centres undefined) ?
> 100 µM

What TGI value was documented for this compound, `CCN(C(=O)N[C@@H](Cc1ccccc1)C(=O)N[C@@H](CC(C)C)C(=O)NC)c1ccccc1` ?
> 100 µM

What TGI value was documented for this compound, C=CCCCC(=O)CCC(=O)OCC1O[C@@H](O[C@@H]2C(O)[C@@H](OC(C)=O)C(C)O[C@H]2O[C@H](CC=C)CCCCC)C(O)[C@@H](OC(=O)/C(C)=C/C)[C@@H]1OC(=O)/C=C/c1ccccc1 (some centres undefined) ?
> 50 µM

What TGI value was documented for this compound, `O=C(Cc1nc2cccnc2nc1/C=C(\O)c1ccccc1)c1ccccc1` ?
58.4 µM

----------
Test system: HS 578T breast
Assay: NCI tumour cell line growth inhibition, 48 h; in the data active = GI50 below about 0.43 µM; inactive = the rest
Please answer using one outcome listed in true for active, false for inactive

Recorded test call requested for `CCCCCC/C=C\CCCCCCCCCc1cc(O)cc(OC)c1O`
false

Recorded test call requested for CC12CC[C@@H]3c4cc5c(cc4CC[C@H]3[C@@H]1CCC2O)oc1cc(F)ccc15 (stereo partly specified)
false

Recorded test call requested for `COc1cc2c3c(n(CCCNCCCNCCCn4c5c(c6cc(OC)c(OC)cc6c4=O)C(=O)c4ccccc4-5)c(=O)c2cc1OC)-c1ccccc1C3=O`
false

Recorded test call requested for `COc1ccc2[nH]c(C(=O)N3CCN(C(=O)OCc4ccc5c(Br)cc(Br)c(O)c5n4)CC3)cc2c1`
false

Recorded test call requested for `COC(=O)c1ccc([C@H]2c3[nH]c4ccccc4c3C[C@H](C(=O)OC)N2C(=O)CCl)cc1`
false

Recorded test call requested for `CC1=C2[C@H]3OC(=O)[C@@H](C)[C@@H]3CC[C@@]2(C)C=CC1=O`
false

Recorded test call requested for `Cn1cc(-c2ccc(-c3cn(C)c4ncccc34)[nH]2)c2cccnc21`
false

Recorded test call requested for `COc1cc(C(=O)/C=C/c2cc(-c3cc(OC)c(OC)c(OC)c3)n[nH]2)cc(OC)c1OC`
false

Recorded test call requested for `O=c1cc(N2CCOCC2)oc2c(-c3ccc4c(c3)OCCO4)csc12`
true

Recorded test call requested for `O=c1c2c3c(sc2n2c(CCl)nnc2n1Cc1ccccc1)CCCC3`
false

Recorded test call requested for `O=C(N/N=C\c1cc(Cl)ccc1O)c1ccncc1`
false

Recorded test call requested for `Cc1c(-c2ccc(O)c(O)c2)oc(=O)c2c(O)cc(O)cc12`
false

Recorded test call requested for `O=c1c2sc3ccccc3c2nnn1-c1ccc(F)c(Cl)c1`
false

Recorded test call requested for `O=[N+]([O-])[O][Sn]([O][Sn]([O][N+](=O)[O-])([c]1ccccc1)[c]1ccccc1)([c]1ccccc1)[c]1ccccc1`
false

Recorded test call requested for Nc1c(C(=O)Nc2ccccc2)sc2nc3c(cc12)C(O)CCC3 (stereo unspecified)
true

Recorded test call requested for `COc1ccc2nc(NC(=O)COc3cc(/C=C\c4cc(OC)c(OC)c(OC)c4)ccc3OC)sc2c1`
false
